Could you please report measured inhibition at 10 µM for the items listed next?
Target: HDAC6 enzyme (Homo sapiens, UniProt Q9UBN7)
Construct: HDAC6 enzyme prepared by transducing full length HDAC6 gene into Sf-9 insect cells; GST; purchased SignalChem; host or cells: Sf-9 insect cells
Sequence (Q9UBN7 1-1215): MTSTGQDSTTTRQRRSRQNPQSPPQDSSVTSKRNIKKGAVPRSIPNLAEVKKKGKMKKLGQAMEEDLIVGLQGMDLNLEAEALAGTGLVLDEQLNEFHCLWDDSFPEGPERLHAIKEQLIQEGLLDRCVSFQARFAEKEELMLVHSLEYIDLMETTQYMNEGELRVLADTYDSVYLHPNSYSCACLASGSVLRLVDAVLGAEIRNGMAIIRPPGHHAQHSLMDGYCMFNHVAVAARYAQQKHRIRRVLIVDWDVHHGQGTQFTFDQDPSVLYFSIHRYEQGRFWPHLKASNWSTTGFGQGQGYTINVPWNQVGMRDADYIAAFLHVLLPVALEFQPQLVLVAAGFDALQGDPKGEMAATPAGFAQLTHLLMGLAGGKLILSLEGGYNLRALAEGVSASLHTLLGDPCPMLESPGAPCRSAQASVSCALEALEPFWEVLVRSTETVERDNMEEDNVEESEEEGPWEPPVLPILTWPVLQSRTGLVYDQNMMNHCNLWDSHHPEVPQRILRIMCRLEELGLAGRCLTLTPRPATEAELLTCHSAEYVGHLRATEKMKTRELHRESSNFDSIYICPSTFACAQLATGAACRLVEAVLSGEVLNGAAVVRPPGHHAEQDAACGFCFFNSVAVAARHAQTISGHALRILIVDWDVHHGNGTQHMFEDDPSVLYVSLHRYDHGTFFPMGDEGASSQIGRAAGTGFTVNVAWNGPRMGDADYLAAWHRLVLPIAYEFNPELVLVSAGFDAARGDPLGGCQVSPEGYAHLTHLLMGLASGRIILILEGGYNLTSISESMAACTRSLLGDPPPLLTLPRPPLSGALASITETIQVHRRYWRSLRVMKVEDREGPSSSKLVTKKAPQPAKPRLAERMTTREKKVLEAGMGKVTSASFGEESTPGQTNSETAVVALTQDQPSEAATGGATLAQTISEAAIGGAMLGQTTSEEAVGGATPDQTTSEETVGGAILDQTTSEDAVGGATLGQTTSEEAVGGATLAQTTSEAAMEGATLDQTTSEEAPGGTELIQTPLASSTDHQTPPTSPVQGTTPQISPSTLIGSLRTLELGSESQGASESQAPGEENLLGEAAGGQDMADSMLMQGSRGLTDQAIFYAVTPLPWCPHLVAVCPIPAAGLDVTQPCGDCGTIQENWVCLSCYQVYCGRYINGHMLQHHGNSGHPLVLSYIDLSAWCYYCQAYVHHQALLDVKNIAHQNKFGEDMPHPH
Test: HDAC6 enzyme inhibitory assay (HDAC-Glo I/II Assay kit)
Type: biochemical
Settings: wells without enzyme = 100% inhibition, read-out: HDAC6 inhibitory rate (%) (10 μM)
Protocol: Experimental Example 1 HDAC6 Enzyme Inhibitory Assay HDAC6 enzyme prepared by transducing full length HDAC6 gene into Sf-9 insect cells and purifying by GST affinity column were purchased from SignalChem. Using this enzyme, HDAC6 enzyme inhibitory activity of the compound of the present invention were evaluated. […] HDAC6 enzyme inhibitory activity of the compound of the present invention was measured using HDAC-Glo™ I/II Assay kit (Promega) according to the following experimental method. […]
Give bare numbers, in %.

Known inhibition at 10 µM results, listed for orientation:
| Compound | Result type | Display unit | Number |
| --- | --- | --- | --- |
| O=C1c2cc(-c3nnc(C(F)F)o3)ccc2CN1[C@H](c1ccccn1)[C@@H](O)c1cccc(F)c1 (single isomer, unassigned) | inhibition at 10 µM | % | 100 |
| O=C1c2cc(-c3nnc(C(F)F)o3)ccc2CN1[C@H](c1cnccn1)[C@@H](O)c1cccc(F)c1 (single isomer, unassigned) | inhibition at 10 µM | % | 100 |
| O=C1c2cc(-c3nnc(C(F)F)o3)ccc2CN1[C@H](C1CC1)[C@@H](O)c1cccc(Cl)n1 (single isomer, unassigned) | inhibition at 10 µM | % | 100 |
| Cn1cc([C@H]([C@@H](O)c2ccc(F)cc2)N2Cc3ccc(-c4nnc(C(F)F)o4)cc3C2=O)cn1 (racemic) | inhibition at 10 µM | % | 100 |
| O=C1c2cc(-c3nnc(C(F)F)o3)ccc2CN1[C@H](c1ccccn1)[C@@H](O)c1ccc(F)cn1 | inhibition at 10 µM | % | 101 |

Inquiry: So what's the measured inhibition at 10 µM for this one? O=C1c2cc(-c3nnc(C(F)F)o3)ccc2CN1[C@H](c1ccccn1)[C@H](O)c1ccccn1 (racemic)
Reply text: 99
